tested on: IGROV-1; assay: NCI tumour cell line growth inhibition, 48 h
Active and inactive are the calls of the source. Cut-off read from the data, not from the text of the source: active = GI50 up to about 1.1 µM and inactive = higher.
RECORDED ENDPOINT: GI50

| COMPOUND | RECORDED ENDPOINT | RECORDED VALUE |
| --- | --- | --- |
| Cc1ccc(C(=O)/C=C/c2ccccc2Cl)cc1 | GI50 | 18.4 µM (inactive) |
| O=C(Cn1c(=O)ccn(C2OC(CO)C(O)C2F)c1=O)c1ccc(F)cc1 (stereo not drawn) | GI50 | > 100 µM (inactive) |
| OC1c2ccccc2CCC1C(O)(C(F)(F)F)C(F)(F)F (stereo not drawn) | GI50 | > 100 µM (inactive) |
| COc1ccc2[nH]c3c(c2c1)CC(=O)N1CCCC(CC3O)C1 (stereo not drawn) | GI50 | > 100 µM (inactive) |
| O=C(O)/C(O)=C1/C=C(c2ccccc2)c2ccccc21 | GI50 | 22.1 µM (inactive) |
| CCn1c(-c2ccc(OC(C)=O)cc2)c(C)c2cc(OC(C)=O)ccc21 | GI50 | 24 µM (inactive) |
| COc1ccc(/C=C2\C(=O)N(C)C(=O)c3cc(OC)c(OC)cc32)cc1OC | GI50 | 29.2 µM (inactive) |
| COC1=CC(=O)OC(/C=C(C)/C=C/C2=C(C)CCCC2(C)C)C1 (stereo not drawn) | GI50 | > 100 µM (inactive) |
| O=c1oc2c(O)c(O)c(O)c3c(=O)oc4c(O)c(O)cc1c4c23 | GI50 | > 100 µM (inactive) |
| COC(O)C(=O)c1c2c(cc3c1CC1(Cc4cc5c(cc4C1)CCC5)C3)CCC2 (stereo not drawn) | GI50 | 13 µM (inactive) |
| C=CC(Br)(CBr)CCC(Br)C(C)C (stereo not drawn) | GI50 | 3.46 µM (inactive) |
| NC(=O)c1ncn2c(=O)n(CCCl)nnc12 [MITOZOLOMIDE] | GI50 | 132 µM (inactive) |
| COc1ccc(C(C#N)NNc2nc(C)cc(O)n2)cc1OC (stereo not drawn) | GI50 | > 100 µM (inactive) |
| COc1ccc(-n2c3c(c4c(CN(C)C)c(O)ccc42)C(=O)c2ccccc2C3=O)cc1 | GI50 | 3.99 µM (inactive) |
| COC(=O)C1CCC(=O)N1CN(C(C)=O)c1cccc(O)c1 (stereo not drawn) | GI50 | > 100 µM (inactive) |
| CN(Cc1ccccc1)c1nc(=[N+](C)C)ss1 | GI50 | > 100 µM (inactive) |
| CCOC(=O)N(NC(=O)NC(C)C)c1ccccc1 | GI50 | > 100 µM (inactive) |
| CSC(SC)=C1C(=O)N(c2ccccc2)N=C1C | GI50 | 29.3 µM (inactive) |
| O=c1c2ccccc2[nH]c2ccc3c(Cl)n[nH]c3c12 | GI50 | 35 µM (inactive) |
| CCCCCCc1cc2cc(-c3cn4c(n3)sc3ccccc34)c(=O)oc2cc1O | GI50 | > 100 µM (inactive) |
| COc1cccc(C=O)c1[O-].COc1cccc(C=O)c1[O-].[Zn+2] | GI50 | 75.2 µM (inactive) |
| C[Si](C)(N[Si](C)(C)OCCc1ccccc1)OCCc1ccccc1 | GI50 | > 100 µM (inactive) |
| Cn1c(=O)nc2n(-c3cccc(Cl)c3)c3ccccc3nc-2c1=O | GI50 | 24.8 µM (inactive) |
